Molecular target: human ether-à-go-go-related gene (hERG) potassium channel (human, UniProt Q12809);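 also: peak tail current of the secondary pulse compared with the same well before compound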
Sequence (Q12809 whole entry, looked up): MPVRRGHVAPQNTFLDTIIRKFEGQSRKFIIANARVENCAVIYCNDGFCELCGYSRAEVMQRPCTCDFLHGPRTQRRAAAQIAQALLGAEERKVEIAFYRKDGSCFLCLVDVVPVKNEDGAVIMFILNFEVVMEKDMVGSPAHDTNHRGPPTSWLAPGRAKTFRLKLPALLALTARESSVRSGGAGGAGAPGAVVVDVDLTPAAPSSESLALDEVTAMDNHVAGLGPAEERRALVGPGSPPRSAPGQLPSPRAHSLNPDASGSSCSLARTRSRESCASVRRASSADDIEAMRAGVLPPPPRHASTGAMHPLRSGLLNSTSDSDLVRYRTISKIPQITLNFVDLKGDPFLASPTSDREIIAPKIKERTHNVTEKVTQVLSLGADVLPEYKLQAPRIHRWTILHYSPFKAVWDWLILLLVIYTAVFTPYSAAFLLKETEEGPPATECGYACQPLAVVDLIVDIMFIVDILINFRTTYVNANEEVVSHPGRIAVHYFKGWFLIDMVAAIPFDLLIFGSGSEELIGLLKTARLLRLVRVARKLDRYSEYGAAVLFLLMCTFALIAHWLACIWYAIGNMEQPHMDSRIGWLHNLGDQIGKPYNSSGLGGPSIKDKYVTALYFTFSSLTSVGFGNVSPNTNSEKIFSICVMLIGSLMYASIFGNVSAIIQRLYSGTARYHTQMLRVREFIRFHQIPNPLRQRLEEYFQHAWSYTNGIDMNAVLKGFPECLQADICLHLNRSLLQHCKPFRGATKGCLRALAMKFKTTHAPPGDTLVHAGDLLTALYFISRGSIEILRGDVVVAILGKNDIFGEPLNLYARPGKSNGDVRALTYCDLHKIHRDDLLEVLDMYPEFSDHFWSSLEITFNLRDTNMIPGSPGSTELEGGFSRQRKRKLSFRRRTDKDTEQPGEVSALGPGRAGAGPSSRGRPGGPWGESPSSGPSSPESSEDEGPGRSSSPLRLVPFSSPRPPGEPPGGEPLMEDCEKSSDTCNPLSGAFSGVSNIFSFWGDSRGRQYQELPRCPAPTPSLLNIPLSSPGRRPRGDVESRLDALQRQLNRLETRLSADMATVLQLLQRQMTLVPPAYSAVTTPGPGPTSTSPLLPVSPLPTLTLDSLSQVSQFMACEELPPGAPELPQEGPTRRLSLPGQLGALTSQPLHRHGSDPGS
Assay: primary screen, population patch clamp on CHO cells stably expressing hERG; higher = less effect of the substance
About 14,000 (4.5%) of roughly 310,000 compounds showed an effect of 50% or more. Effects have a minus sign here. The sample as a whole holds a higher share of strong results than the screen did.
Measured Attribute: hERG current change (%, negative = inhibition) at 10uM (%)
Give the value in % but do not write % after it.

// worked examples, hERG current change (%, negative = inhibition) at 10uM included
# Smiles String, System Under Test, Recorded Number
measured = [
    ("O=C(N/C(=C\\c1ccc([N+](=O)[O-])cc1)C(=O)N1CCCCC1)c1ccccc1Br", "human ether-à-go-go-related gene (hERG) potassium channel (human, UniProt Q12809)", -59.4),
    ("N/C(=N\\OC(=O)/C=C/c1ccccc1)c1ccncc1", "human ether-à-go-go-related gene (hERG) potassium channel (human, UniProt Q12809)", -52.3),
    ("O=C(Nc1cccc(S(=O)(=O)N2CCCC2)c1)c1cccc(OC(F)F)c1", "human ether-à-go-go-related gene (hERG) potassium channel (human, UniProt Q12809)", -56.4),
    ("C(#CCN1CCOCC1)COCC#Cc1ccccc1.Cl", "human ether-à-go-go-related gene (hERG) potassium channel (human, UniProt Q12809)", -2.16),
    ("CC(=O)Nc1ccc(C(=O)N/C(=C/c2ccccc2)C(=O)N2CCCCC2)cc1", "human ether-à-go-go-related gene (hERG) potassium channel (human, UniProt Q12809)", 4.57),
]

Look at this molecule and give its reported hERG current change (%, negative = inhibition) at 10uM. COc1cc(CN2CCN(Cc3ccc(C)cc3)CC2)c([N+](=O)[O-])cc1OC.O=C(O)C(=O)O
-77.2

Look at this molecule and give its reported hERG current change (%, negative = inhibition) at 10uM. O=C(Nc1ccc(S(=O)(=O)N2CCCC2)cc1)c1ccccc1
-7.24

Look at this molecule and give its reported hERG current change (%, negative = inhibition) at 10uM. O=C(OCC#Cc1c(COC(=O)c2ccccc2)nnn1Cc1ccccc1)c1ccccc1
5.67

---

Molecular target: human ether-à-go-go-related gene (hERG) potassium channel (human, UniProt Q12809);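 also: peak tail current of the secondary pulse compared with the same well before compound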
Assay: primary screen, population patch clamp on CHO cells stably expressing hERG; higher = less effect of the substance
Procedure: Briefly, Chinese hamster ovary (CHO) cells stably expressing the hERG channel were dislodged from tissue culture flasks and dispensed into PPC plates. […] During the recording, background leak currents were estimated by a 100 ms step to -80 mV from an initial holding potential of -70 mV and subtracted from the subsequent current measurement. The campaign was conducted in two phases using slight differences in recording protocol. […]
Hit rate of the full screen: of about 310,000 compounds, about 14,000 (4.5%) showed an effect of 50% or more. The effect is printed as a negative number. The list comes from a sample in which strong results are over-represented; it also holds close analogues and randomly drawn compounds.
hERG current change (%, negative = inhibition) at 10uM listing for selected compounds.
Give the value in % but do not write % after it.

# Compound, Recorded Number
data = [
    ("O=C(CSc1nnc(CNC(=O)c2cccs2)o1)Nc1ccc(Cl)cc1", -4.26),
    ("Cc1ccc(NS(=O)(=O)c2ccc(-c3coc(C)n3)cc2)c(C)c1", 15.6),
    ("Cc1ccc2c(c1)N(CCC(=O)NCCCOC(C)C)C(=O)C(C)O2 (centres unmarked)", -0.496),
]

Look at this compound and give its reported hERG current change (%, negative = inhibition) at 10uM. COc1cc(N2C(=O)c3ccccc3C2=O)c(Cl)cc1C(=O)OCC(=O)NCc1ccco1
-56.1

Look at this compound and give its reported hERG current change (%, negative = inhibition) at 10uM. CCOc1ccc(N(CC(=O)NCc2ccc(OC)cc2)C(=O)CCC(=O)Nc2nccs2)cc1
8.55

---

Molecular target: human ether-à-go-go-related gene (hERG) potassium channel (human);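 also: peak tail current of the secondary pulse compared with the same well before compound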
Assay: primary screen, population patch clamp on CHO cells stably expressing hERG; higher = less effect of the substance
Screen size: about 310,000 compounds; about 14,000 (4.5%) showed an effect of 50% or more. The effect is printed as a negative number. For the sample, strong results were picked, then their nearest neighbours and some compounds at random.
Measured Attribute: hERG current change (%, negative = inhibition) at 10uM
Write your answer as a measured quantity: the number, then the unit.

// worked examples, hERG current change (%, negative = inhibition) at 10uM included
# Compound, Result
records = [
    ("Cc1cccc(N2CCN(C(=O)Cn3cnc4c3c(=O)n(C)c(=O)n4C)CC2)c1C", "-26%"),
    ("CCCN(CCC)C(=O)/C=C/c1cccc([N+](=O)[O-])c1", "-34.5%"),
    ("CCCCn1c(N)c(N(CCC(C)C)C(=O)c2cccc(-n3cnnn3)c2)c(=O)[nH]c1=O", "-7.92%"),
    ("COc1cccc(N2CCN(CC(=O)NCc3ccccc3)CC2)c1", "-5.53%"),
    ("CCOc1ccccc1NC(=O)c1sc2nc(C)nc(N3CCOCC3)c2c1C", "-14.4%"),
]

Look at this compound and give its reported hERG current change (%, negative = inhibition) at 10uM. CC(=O)N1c2ccc(S(=O)(=O)N3CCC(C(=O)Nc4cccc(Cl)c4)CC3)cc2CC1C (stereo not shown)
15.1%

Look at this compound and give its reported hERG current change (%, negative = inhibition) at 10uM. C[n+]1ccccc1/C=C/c1cc(Br)ccc1O.[I-]
14.7%

Look at this compound and give its reported hERG current change (%, negative = inhibition) at 10uM. COc1ccc(S(=O)(=O)N2CCOC23CCN(S(=O)(=O)c2ccccc2)CC3)cc1
8.72%

Look at this compound and give its reported hERG current change (%, negative = inhibition) at 10uM. CCCC(C)NC(=O)/C=C/c1cccc([N+](=O)[O-])c1 (stereo not shown)
-7.16%

Look at this compound and give its reported hERG current change (%, negative = inhibition) at 10uM. Cc1cc(S(=O)(=O)n2cnc3cc([N+](=O)[O-])ccc32)ccc1Cl
-2.69%

Look at this compound and give its reported hERG current change (%, negative = inhibition) at 10uM. COc1ccc(N2CCN(CC(=O)NCc3ccccc3)CC2)cc1
0.922%

Look at this compound and give its reported hERG current change (%, negative = inhibition) at 10uM. CCc1c(C)nc(N)n2c(SCC(=O)Nc3ccccc3)nnc12
12.5%

Look at this compound and give its reported hERG current change (%, negative = inhibition) at 10uM. Cc1ccc(CNC(=O)c2ccccc2NC(=O)CN2CCN(C)CC2)cc1
-59.2%

Look at this compound and give its reported hERG current change (%, negative = inhibition) at 10uM. Cn1c(=O)c2c(nc(N3CCCC3)n2C)n(C)c1=O
10%

Look at this compound and give its reported hERG current change (%, negative = inhibition) at 10uM. COc1ccc(N2CCN(C(=O)Cn3cnc4c3c(=O)n(C)c(=O)n4C)CC2)cc1
5.48%

Look at this compound and give its reported hERG current change (%, negative = inhibition) at 10uM. Cn1c(=O)c2c(ncn2CC(=O)N2CCN(c3ccc([N+](=O)[O-])cc3)CC2)n(C)c1=O
-72%

Look at this compound and give its reported hERG current change (%, negative = inhibition) at 10uM. CN1CCc2c(n(CC(O)CNCc3ccccc3)c3ccccc23)C1=O.Cl (stereo not shown)
-52.8%

Look at this compound and give its reported hERG current change (%, negative = inhibition) at 10uM. Cn1c(=O)c2c(ncn2CC(=O)N2CCN(c3ccc(F)cc3)CC2)n(C)c1=O
-23.4%

Look at this compound and give its reported hERG current change (%, negative = inhibition) at 10uM. Cn1c(=O)c2c(nc(N3CCOCC3)n2C)n(C)c1=O
-4.44%

Look at this compound and give its reported hERG current change (%, negative = inhibition) at 10uM. COc1ccc(S(=O)(=O)N2CCOC23CCN(C(=O)c2ccc(Cl)cc2Cl)CC3)cc1
-68.9%

---

hERG current change (%, negative = inhibition) at 10uM listing for selected compounds.
Molecular target: human ether-à-go-go-related gene (hERG) potassium channel (human);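 also: peak tail current of the secondary pulse compared with the same well before compound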
Test: primary screen, population patch clamp on CHO cells stably expressing hERG; higher = less effect of the substance
Out of some 310,000 compounds screened, about 14,000 (4.5%) showed an effect of 50% or more. The effect is printed as a negative number. The entries come from a sample that favours strong results as a whole.
Give the value in % but do not write % after it.

// worked examples, hERG current change (%, negative = inhibition) at 10uM included
# Compound, Recorded Number
data = [
    ("O=C(Nc1nccs1)c1ccc(COc2ccccc2Br)o1", -6.85),
    ("Cc1ccc(C(=O)N(C)c2ccc(OCC(=O)N3c4ccc(C)cc4C4CN(C)CCC43)cc2)cc1.Cl (stereo not drawn)", -25.5),
    ("CC(C)C(NC(=O)OCc1ccccc1)C(=O)OCC(=O)N1C(C)CCCC1C (stereo not drawn)", 4.95),
    ("CC(C)c1ccccc1OCC(=O)N1CCCCCCC1", 13),
    ("COc1cccc(-c2nnn(CC(=O)O)n2)c1", 9.1),
    ("Cn1ncc([N+](=O)[O-])c1C(=O)N/N=C/c1ccc(F)cc1", -9.05),
    ("CC(=O)c1c(C)[n+]([O-])c2ccc3c(non3O)c12", 13.6),
    ("Cc1ccc2c(c1)C1CN(C)CCC1N2C(=S)Nc1cccnc1 (stereo not drawn)", -14),
]

So what hERG current change (%, negative = inhibition) at 10uM did CS(=O)(=O)N(CC(=O)NCCSCc1c(F)cccc1Cl)c1cccc([N+](=O)[O-])c1 get with human ether-à-go-go-related gene (hERG) potassium channel (human)?
-15.9

So what hERG current change (%, negative = inhibition) at 10uM did Cc1ccc2c(c1)C1CN(C)CCC1N2C(=S)Nc1ccc(OC(F)F)cc1 (stereo not drawn) get with human ether-à-go-go-related gene (hERG) potassium channel (human)?
-55.1

So what hERG current change (%, negative = inhibition) at 10uM did COc1ccc(-c2cc(C3CCN(Cc4cccc(C(F)(F)F)c4)CC3)[nH]n2)cc1 get with human ether-à-go-go-related gene (hERG) potassium channel (human)?
-55.2

So what hERG current change (%, negative = inhibition) at 10uM did Cc1nc(-c2ccccc2)nn1-c1ccc([N+](=O)[O-])cc1 get with human ether-à-go-go-related gene (hERG) potassium channel (human)?
-26.2

Sourced from paper PMC4336329
